Each item that follows carries a reported protein stability index.
# assay.overview: protein stability index of a GFP-peptide fusion (yeast GPS) (PSI 1-4); higher = more stable; sorted into four equal gates, so the index is relative within each strain
# details: doa10∆
property.name: protein stability index

> print(dat)
                         item.sequence  reported.value
 1           KWPEYVRLQRQKKILSI [RPL8B]            1.18
 2           AVKYGLNHVVSLIENKK [RPL8B]            2.25
 3            LLSDVNQNQRNVNETMS [SMC3]            3.06
 4            NHKIIARVKAFDRHCNM [SMD2]             1.7
 5            KIQFHIHFADVAHITTK [RGR1]            2.88
 6          IPDMSKNVELGWKPLRY [SNU114]            3.29
 7          DVVTREYTINLHKRLHG [RPL31A]            2.62
 8    ASSTPIPVLGKPTDATG [YOR098C/NUP1]            2.43
 9           VKLQMIKFGGLIIQKIP [ECM29]            2.48
10            CVKAIEALFQSRPDILS [YCG1]            3.19
11   GSNNAQTSRGLFGNNNT [YGL172W/NUP49]            3.24
12            LQPIFKGEEAKLDSKKT [SSN3]            3.52
13  DCENFFNYVQECPAIPI [YJL039C/NUP192]            2.49
14            LKTRDWIVVLPWFWLLP [POP1]            1.51
15           KVTKIWSKESNYDCKVI [PRP28]            2.93
16            KEYELLTLQEDYIKDEQ [RPT3]            3.53
17            MEERDGAKFENIVHNFK [AAR2]            3.09
18   FSKKGNEPLSEIEIEGV [YAR002W/NUP60]            2.72
19            NFASGDNNTASNMLGSN [RPB3]               3
20           NNNGNSAASKKKKNKNK [SRP21]            3.09
21            VAGAIRAGIIIAKLSVI [RPS2]            1.91
22            YATKRQEAIQQNRRLAF [PRP8]            2.43
23            LFDTYHASKAIGLPRHS [RRP6]            2.15
24    AEASFTFGTKHAADSQN [YLR335W/NUP2]            3.27
25  SFSLTVSKEQFLKDADV [YJL039C/NUP192]            1.47

---

# assay.overview: protein stability index of a GFP-peptide fusion (yeast GPS) (PSI 1-4); higher = more stable; sorted into four equal gates, so the index is relative within each strain
# details: san1∆
property.name: protein stability index

> print(dat)
                       item.sequence  reported.value
 1          NAKRSHMMKRWGYQMVW [POP1]            2.69
 2  SKKRQAEKLVPLPICHA [YML031W/NDC1]            2.39
 3          YSLEAIKLGSTAIGIAT [PUP2]            1.43
 4         AGNLITTPEINNFIVER [SRP68]            3.18
 5          IVDDKQEMIDILETIFR [DIB1]            3.02
 6          LSNIPLLLITHHSWSQS [ARP9]            1.51
 7          TKSSKEFFNTLRKSRET [RRI2]            3.06
 8          LSRNGKPVMEVTSSFFY [FAS1]            2.79
 9  FILELEHKTPELISFKE [YIL149C/MLP2]            2.96
10          NAGTDIVMEDHGVLQGT [MED1]            3.08
11          LLGKESFKKIIKFLLTF [YCS4]            1.18
12          IMWQLLDGVSYLHQNWV [SSN3]            1.23
13          KKMMNTLVHTRVKIANT [SSN2]            2.67
14          GGEKTVAALALLFAINS [SMC1]            1.12
15         STLGDCLGIKDEEMLTS [GAL11]            2.81
16  LGLKLACLGNDGILRLY [YGL100W/SEH1]            1.86
17          PPGYEIEELDNPMVPSS [PRP8]            3.26
18          YASYFPYLLETYANVLI [RPN7]            1.18
19          RQRELLIAHQRSAWNNN [GRR1]            2.31
20          QKTQELNAKYQSLGLDD [ISW2]            3.17
21          NLGRAVFWEIQSRVPTS [PRP8]            2.17
22        MEKDKLKNLLRSNFRVN [SNU114]            2.46
23          LEDLKDVYASKVRLNAS [PRP8]            2.47
24          MSDLFTFDWFIKTRTVH [ISW2]            2.76
25          QLFHSMSIVFGDKFSED [UBP6]            1.14
26          IEDKENSESTTQGGNVN [RPT5]            3.46
27          KAKRSNLYTPKAEMPPE [PRP8]            2.84
28          GQCRTELEGSFNKSAEL [YCS4]             2.6
29          LGLLTPEVVELCQKSPV [FAS2]            2.11
30        EVILVDPQHKAIRRDAR [RPL15A]            2.78
31          VRMRLAQLTHSLRRIRD [MED8]            1.49
32          KTDPAGYYVGYKATATG [SCL1]            3.21
33          LSDRITGNFIIPSGNVW [PRP8]            2.84
34  METRINILLRERDSYKL [YIL149C/MLP2]             1.2
35         DEFYINVDKNLNEIKEH [RPN14]            2.73
36         TIFKYLTDKDAFETHYR [CDC53]            3.09
37         FYVQDVYKDNLSFIQVR [RPO31]            1.92
38          VDIGGKQHAVLMLGSVN [RRP4]            2.68
39          QYQLLYNLKNDILTNLE [SWI1]            1.74
40          TKPAIRRLARRGGVKRI [HHF1]               3
